Recorded values, source patent US8106055B2.

Measured 5-HT (inhibition of reuptake of serotonin, % inhibition) values are reported for all entries that follow.
# system name: serotonin (5-HT) reuptake (Rattus norvegicus, UniProt P31652)
# Construct: synaptosomes are freshly isolated from areas of the rat brain; from tissue; host or cells: rat brain synaptosomes (P2 fraction)
# Sequence (P31652 whole entry): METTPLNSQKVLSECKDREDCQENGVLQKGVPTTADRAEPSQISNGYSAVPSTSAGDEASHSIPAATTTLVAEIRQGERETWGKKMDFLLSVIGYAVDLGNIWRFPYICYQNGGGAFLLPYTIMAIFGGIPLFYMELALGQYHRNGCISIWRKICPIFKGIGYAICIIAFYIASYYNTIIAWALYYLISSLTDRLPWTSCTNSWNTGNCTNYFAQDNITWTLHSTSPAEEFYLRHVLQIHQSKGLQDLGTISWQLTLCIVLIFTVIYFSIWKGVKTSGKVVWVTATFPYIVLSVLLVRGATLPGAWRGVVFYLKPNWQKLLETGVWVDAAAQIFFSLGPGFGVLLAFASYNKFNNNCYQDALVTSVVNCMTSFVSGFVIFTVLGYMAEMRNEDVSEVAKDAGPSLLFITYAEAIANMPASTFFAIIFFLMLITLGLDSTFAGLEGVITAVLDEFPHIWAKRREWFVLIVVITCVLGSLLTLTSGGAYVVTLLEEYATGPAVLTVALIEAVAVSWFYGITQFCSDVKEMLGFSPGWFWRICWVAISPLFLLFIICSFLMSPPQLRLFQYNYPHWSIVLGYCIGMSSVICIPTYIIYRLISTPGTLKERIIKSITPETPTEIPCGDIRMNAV
# experiment: Inhibition of serotonin (5HT) reuptake in synaptosomes from rat brain
# Format: biochemical
# condition summary: test concentration of 10 μM
endpoint: 5-HT (inhibition of reuptake of serotonin, % inhibition) (%)

CN(C)C(CCc1ccccc1)C1CCC(CNC(=O)COCCN2CCN(S(=O)(=O)c3ccccc3)CC2)CC1 (stereo not drawn) [Example 526]    90
COc1cc(C)c(S(=O)(=O)N(CCOCC(=O)NCC2CCC(C(c3ccc(Cl)cc3)N(C)C)CC2)Cc2ccccc2)c(C)c1 (stereo not drawn) [Example 473]    64
CN(C)C(c1cccc(F)c1)C1CCC(CNC(=O)COCCN(C)S(=O)(=O)c2ccc(F)cc2)CC1 (stereo not drawn) [Example 229]    89
CN(C)C(c1ccc(Cl)cc1)C1CCC(CCNC(=O)COCc2ccccc2)CC1 (stereo not drawn) [Example 482]    55
COc1cc(C)c(S(=O)(=O)N(C)CCOCC(=O)NC2CCC(C(c3cccc(F)c3)N(C)C)CC2)c(C)c1 (stereo not drawn) [Example 228]    85
CN(C)C(c1ccc(F)cc1)C1CCC(CNC(=O)COCCN(C)S(=O)(=O)c2ccc(Cl)cc2Cl)CC1 (stereo not drawn) [Example 249]    95

###

Measured inhibition at 10 µM by item
# system name: bradykinin 1 receptor (B1R) of the rat (Rattus norvegicus)
# Construct: expressed in transfected cells; host or cells: CHO K1 cells
# Sequence (P97583 whole entry): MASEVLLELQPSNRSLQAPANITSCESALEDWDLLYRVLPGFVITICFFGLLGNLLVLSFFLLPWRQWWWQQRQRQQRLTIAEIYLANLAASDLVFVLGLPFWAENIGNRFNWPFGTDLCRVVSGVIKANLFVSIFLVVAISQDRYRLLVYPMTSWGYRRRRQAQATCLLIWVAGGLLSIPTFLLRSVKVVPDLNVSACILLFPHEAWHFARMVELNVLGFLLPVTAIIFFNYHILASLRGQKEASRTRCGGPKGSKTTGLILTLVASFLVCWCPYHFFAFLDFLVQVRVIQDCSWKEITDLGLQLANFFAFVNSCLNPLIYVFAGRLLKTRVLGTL
# experiment: Functional investigation on the rat bradykinin 1 receptor (B1R), Ca2+ FLIPR assay in CHO K1 rB1R cells
# Assay type: cell-based
# condition summary: CHO-K1, B1R antagonism rat; test substance 10 μM; Ca2+ FLIPR, CHO K1 rB1R cells; read-out: B1R Ant. r [10 μM] % Inhibition
endpoint: inhibition at 10 µM (%)

COc1cc(C)c(S(=O)(=O)N(C)CCOCC(=O)NCCC2CCC(C(c3cccc(F)c3)N(C)C)CC2)c(C)c1 (stereo not drawn) [Example 197]    105
CN(C)C(c1ccccc1)C1CCC(NC(=O)COCCN(C)S(=O)(=O)c2c(Cl)cc(Cl)cc2Cl)CC1 (stereo not drawn) [Example 34]    24
CN(CCOCC(=O)NCC1CCC(C(CCc2ccccc2)N2CCOCC2)CC1)S(=O)(=O)c1ccc(Cl)cc1Cl (stereo not drawn) [Example 716]    31

###

# system name: human μ opiate receptor (Homo sapiens, UniProt P35372)
# Construct: purchased PerkinElmer Life Sciences, Zaventem, Belgium RB-HOM; host or cells: CHO-K1 cells (membrane preparation)
# Sequence (P35372 whole entry): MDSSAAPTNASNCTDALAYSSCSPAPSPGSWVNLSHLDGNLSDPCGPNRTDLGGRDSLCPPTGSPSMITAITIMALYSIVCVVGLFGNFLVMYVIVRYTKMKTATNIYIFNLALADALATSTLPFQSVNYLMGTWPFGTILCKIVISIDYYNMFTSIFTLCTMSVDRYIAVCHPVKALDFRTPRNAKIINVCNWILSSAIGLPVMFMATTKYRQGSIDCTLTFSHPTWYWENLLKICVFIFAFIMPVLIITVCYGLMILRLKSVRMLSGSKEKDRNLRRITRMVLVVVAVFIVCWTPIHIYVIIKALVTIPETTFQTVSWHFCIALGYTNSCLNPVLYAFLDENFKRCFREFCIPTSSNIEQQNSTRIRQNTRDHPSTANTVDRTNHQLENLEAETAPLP
# experiment: Affinity for the human μ opiate receptor ([3H]-naloxone displacement, CHO-K1 receptor membrane preparation, SPA)
# Assay type: binding
# condition summary: 1.5 h, Table 3, to be read in the same way as Table 1; test concentration 1 μM; read-out: μ
compounds and their reported inhibition at 1 µM
endpoint: inhibition at 1 µM

CN(CCOCC(=O)NCC1CCC(C(c2ccccc2)N2CCOCC2)CC1)S(=O)(=O)c1c(Cl)cc(C(F)(F)F)cc1Cl (stereo not drawn)    10%
COc1cc(C)c(S(=O)(=O)N2CCCC2COCC(=O)NC2CCC(C(c3ccccc3)N3CCOCC3)CC2)c(C)c1 (stereo not drawn)    10%
COc1cc(C)c(S(=O)(=O)N2CCC(OCC(=O)NCC3CCC(C(CCc4ccccc4)N4CCOCC4)CC3)C2)c(C)c1 (stereo not drawn)    10%

###

# system name: human bradykinin 1 receptor (B1R) (Homo sapiens, UniProt P46663)
# Construct: expressed in transfected cells; host or cells: CHO K1 cells
# Sequence (P46663 1-353): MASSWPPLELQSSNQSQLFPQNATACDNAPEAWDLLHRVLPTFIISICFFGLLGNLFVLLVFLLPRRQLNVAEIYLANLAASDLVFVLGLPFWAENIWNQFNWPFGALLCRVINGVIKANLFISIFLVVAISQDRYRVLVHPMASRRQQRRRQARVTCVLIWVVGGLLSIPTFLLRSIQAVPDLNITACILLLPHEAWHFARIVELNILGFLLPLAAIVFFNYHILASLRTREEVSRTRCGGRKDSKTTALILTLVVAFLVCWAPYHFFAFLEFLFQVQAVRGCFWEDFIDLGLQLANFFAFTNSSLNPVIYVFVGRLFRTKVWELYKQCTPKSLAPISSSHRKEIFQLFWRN
# experiment: Functional investigation on the human bradykinin 1 receptor (B1R), Ca2+ FLIPR assay in CHO K1 hB1R cells
# Format: cell-based
# condition summary: CHO-K1, B1R antagonism human; test substance 10 μM; Ca2+ FLIPR, CHO K1 hB1R cells; read-out: B1R Ant. h [10 μM] % Inhibition
Param threshold (50%) applies to inhibition at 10 µM; output 1 when value >= threshold, -1 when value < threshold.

CN(CCOCC(=O)NC1CCC(C(CCc2ccccc2)N2CCOCC2)CC1)S(=O)(=O)c1ccc(Cl)cc1Cl (stereo not drawn) [Example 660]    -1
CN(C)C(c1ccccc1)C1CCC(NC(=O)CNC(=O)c2nc(-c3c(Cl)cccc3Cl)no2)CC1 (stereo not drawn) [Example 770]    1
CN(C)C(c1cccs1)C1CCC(CCNC(=O)COC2CCN(S(=O)(=O)c3ccc(Cl)cc3)C2)CC1 (stereo not drawn) [Example 66]    -1
COc1ccc(S(=O)(=O)N2CCCCC2COCC(=O)NCC2CCC(C(c3ccccc3)N(C)C)CC2)c(OC)c1 (stereo not drawn) [Example 106]    -1
COc1cc(C)c(S(=O)(=O)N(C)CCOCC(=O)NCCC2CCC(C(c3cccc(F)c3)N(C)C)CC2)c(C)c1 (stereo not drawn) [Example 197]    1
CN(C)C(c1ccccc1)C1CCC(CNC(=O)COCC2CCCN2S(=O)(=O)c2c(Cl)cc(Cl)cc2Cl)CC1 (stereo not drawn) [Example 622]    1

###

# system name: human μ opiate receptor (Homo sapiens, UniProt P35372)
# Construct: purchased PerkinElmer Life Sciences, Zaventem, Belgium RB-HOM; host or cells: CHO-K1 cells (membrane preparation)
# experiment: Affinity for the human μ opiate receptor ([3H]-naloxone displacement, CHO-K1 receptor membrane preparation, SPA)
# Format: binding
# condition summary: 1.5 h, Table 3, to be read in the same way as Table 1; test concentration 1 μM; read-out: μ
Would you please tag the item t when its inhibition at 1 µM is 50% or above, and f when it is below?

CN(CCOCC(=O)NC1CCC(C(c2ccccc2)N2CCCC2)CC1)S(=O)(=O)c1c(Cl)cc(Cl)cc1Cl (stereo not drawn) [Example 625]    t
CN(CCOCC(=O)NC1CCC(C(c2ccccc2)N2CCOCC2)CC1)S(=O)(=O)c1c(Cl)cc(C(F)(F)F)cc1Cl (stereo not drawn) [Example 689]    f
COc1cc(C)c(S(=O)(=O)N2CCCC2COCC(=O)NCC2CCC(C(c3ccccc3)N3CCCC3)CC2)c(C)c1 (stereo not drawn) [Example 649]    t
COc1cc(C)c(S(=O)(=O)N2CCCC(COCC(=O)NCC3CCC(C(c4ccccc4)N4CCOCC4)CC3)C2)c(C)c1 (stereo not drawn) [Example 744]    f
COc1cc(C)c(S(=O)(=O)N2CCC(OCC(=O)NCC3CCC(C(CCc4ccccc4)N4CCCC4)CC3)C2)c(C)c1 (stereo not drawn) [Example 726]    f
O=C(COC1CCN(S(=O)(=O)c2c(Cl)cc(Cl)cc2Cl)C1)NC1CCC(C(c2ccccc2)N2CCCC2)CC1 (stereo not drawn) [Example 635]    t
COc1cc(C)c(S(=O)(=O)N2CCCCC2COCC(=O)N2CCC(C(CCc3ccccc3)N3CCN(C)CC3)CC2)c(C)c1 (stereo not drawn) [Example 806]    f
CN1CCN(C(c2ccccc2)C2CCC(NC(=O)COCCN(C)S(=O)(=O)c3c(Cl)cc(Cl)cc3Cl)CC2)CC1 (stereo not drawn) [Example 714]    t
CN1CCN(C(c2ccccc2)C2CCC(NC(=O)COCCN(C)S(=O)(=O)c3ccc(Cl)cc3Cl)CC2)CC1 (stereo not drawn) [Example 704]    f
O=C(COCC1CCCN1S(=O)(=O)c1c(Cl)cc(Cl)cc1Cl)NCC1CCC(C(CCc2ccccc2)N2CCOCC2)CC1 (stereo not drawn) [Example 751]    f
CN(CCOCC(=O)NCC1CCC(C(CCc2ccccc2)N2CCCC2)CC1)S(=O)(=O)c1c(Cl)cc(C(F)(F)F)cc1Cl (stereo not drawn) [Example 746]    f
COc1cc(C)c(S(=O)(=O)N2CCCC2COCC(=O)NC2CCC(C(CCc3ccccc3)N3CCCCC3)CC2)c(C)c1 (stereo not drawn) [Example 677]    t
COc1cc(C)c(S(=O)(=O)N(C)CCOCC(=O)NCC2CCC(C(c3ccccc3)N3CCCC3)CC2)c(C)c1 (stereo not drawn) [Example 642]    t
O=C(COC1CCCN(S(=O)(=O)c2c(Cl)cc(Cl)cc2Cl)C1)NCC1CCC(C(c2ccccc2)N2CCCC2)CC1 (stereo not drawn) [Example 656]    t
COc1cc(C)c(S(=O)(=O)N2CCCC(OCC(=O)NC3CCC(C(c4ccccc4)N4CCOCC4)CC3)C2)c(C)c1 (stereo not drawn) [Example 693]    f
COc1cc(C)c(S(=O)(=O)N2CCCCC2COCC(=O)N2CCC(C(Cc3ccccc3)N3CCN(C)CC3)CC2)c(C)c1 (stereo not drawn) [Example 802]    f
COc1cc(C)c(S(=O)(=O)N2CCC(OCC(=O)NC3CCC(C(c4ccccc4)N4CCCC4)CC3)C2)c(C)c1 (stereo not drawn) [Example 629]    f
O=C(COCC1CCCCN1S(=O)(=O)c1c(Cl)cc(Cl)cc1Cl)NC1CCC(C(CCc2ccccc2)N2CCCCC2)CC1 (stereo not drawn) [Example 738]    t
COc1cc(C)c(S(=O)(=O)N2CCCCC2COCC(=O)NCC2CCC(C(c3ccccc3)N3CCOCC3)CC2)c(C)c1 (stereo not drawn) [Example 711]    f
CN(CCOCC(=O)NCC1CCC(C(c2ccccc2)N2CCCC2)CC1)S(=O)(=O)c1c(Cl)cc(Cl)cc1Cl (stereo not drawn) [Example 626]    t
